Field: fold change (FC). Provide a value for each of the molecules that follow.
Target: Son of sevenless homolog 1 (Homo sapiens) (UniProt Q07889)
Sequence (whole entry): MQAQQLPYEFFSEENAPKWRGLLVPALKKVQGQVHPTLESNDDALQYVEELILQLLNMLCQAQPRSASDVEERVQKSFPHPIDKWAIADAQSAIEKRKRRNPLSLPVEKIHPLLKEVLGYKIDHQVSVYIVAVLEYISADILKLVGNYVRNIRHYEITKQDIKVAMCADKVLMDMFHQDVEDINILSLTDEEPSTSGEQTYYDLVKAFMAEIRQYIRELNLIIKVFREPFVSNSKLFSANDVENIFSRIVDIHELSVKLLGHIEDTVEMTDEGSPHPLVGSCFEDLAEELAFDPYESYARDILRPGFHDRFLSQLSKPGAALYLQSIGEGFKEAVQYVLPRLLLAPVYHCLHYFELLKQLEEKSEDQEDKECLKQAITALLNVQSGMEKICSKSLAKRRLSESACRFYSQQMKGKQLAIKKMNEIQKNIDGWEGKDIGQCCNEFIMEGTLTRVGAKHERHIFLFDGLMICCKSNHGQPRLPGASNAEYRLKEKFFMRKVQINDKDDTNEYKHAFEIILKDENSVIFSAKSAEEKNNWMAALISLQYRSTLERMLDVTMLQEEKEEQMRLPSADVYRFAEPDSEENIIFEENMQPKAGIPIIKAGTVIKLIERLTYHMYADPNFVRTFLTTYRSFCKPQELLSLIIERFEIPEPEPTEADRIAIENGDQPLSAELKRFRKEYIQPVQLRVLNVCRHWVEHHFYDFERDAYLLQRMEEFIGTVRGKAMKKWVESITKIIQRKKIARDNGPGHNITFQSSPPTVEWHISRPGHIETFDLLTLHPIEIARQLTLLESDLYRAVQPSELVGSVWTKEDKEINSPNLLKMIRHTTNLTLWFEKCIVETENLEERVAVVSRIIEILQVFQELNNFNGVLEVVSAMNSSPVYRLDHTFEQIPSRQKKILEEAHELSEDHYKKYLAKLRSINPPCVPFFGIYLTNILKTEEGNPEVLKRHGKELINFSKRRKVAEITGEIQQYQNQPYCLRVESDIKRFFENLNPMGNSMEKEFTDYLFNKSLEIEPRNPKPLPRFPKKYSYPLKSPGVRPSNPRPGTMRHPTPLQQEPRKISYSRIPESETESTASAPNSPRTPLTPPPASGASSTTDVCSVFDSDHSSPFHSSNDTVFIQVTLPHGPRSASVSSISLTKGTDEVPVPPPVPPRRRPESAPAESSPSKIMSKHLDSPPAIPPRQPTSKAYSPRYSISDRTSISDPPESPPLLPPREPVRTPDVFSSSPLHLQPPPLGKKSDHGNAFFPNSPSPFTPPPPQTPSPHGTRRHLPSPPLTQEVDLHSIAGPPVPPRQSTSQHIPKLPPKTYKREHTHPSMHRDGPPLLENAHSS
Test: Activation of SOS1 in human HeLa cells assessed as effect on RAS-GTP levels by measuring […] at 50 uM after 30 mins by active RAS pull-down assay relative to control
Assay type: cell-based
One number for each entry.

Fill in fold change (FC) for each of the 4 molecules listed.
1. C[C@@H](Nc1nc(Nc2ccc(F)c(Cl)c2)nc2c(CN)cccc12)C1CC1
2. C[C@@H](Nc1nc(Nc2ccc(F)c(Cl)c2)nc2c(CCN)cccc12)C1CC1
3. C[C@@H](Nc1nc(Nc2ccc(F)c(Cl)c2)nc2c(C3=CCNCC3)cccc12)C1CC1
4. C[C@@H](Nc1nc(Nc2ccc(F)c(Cl)c2)nc2ccccc12)C1CC1

1.14
1.61
1.56
1.26
